- Measured target: Peptidylglycine alpha-amidating monooxygenase (Rattus norvegicus) (UniProt P14925)
- Sequence (P14925 whole entry): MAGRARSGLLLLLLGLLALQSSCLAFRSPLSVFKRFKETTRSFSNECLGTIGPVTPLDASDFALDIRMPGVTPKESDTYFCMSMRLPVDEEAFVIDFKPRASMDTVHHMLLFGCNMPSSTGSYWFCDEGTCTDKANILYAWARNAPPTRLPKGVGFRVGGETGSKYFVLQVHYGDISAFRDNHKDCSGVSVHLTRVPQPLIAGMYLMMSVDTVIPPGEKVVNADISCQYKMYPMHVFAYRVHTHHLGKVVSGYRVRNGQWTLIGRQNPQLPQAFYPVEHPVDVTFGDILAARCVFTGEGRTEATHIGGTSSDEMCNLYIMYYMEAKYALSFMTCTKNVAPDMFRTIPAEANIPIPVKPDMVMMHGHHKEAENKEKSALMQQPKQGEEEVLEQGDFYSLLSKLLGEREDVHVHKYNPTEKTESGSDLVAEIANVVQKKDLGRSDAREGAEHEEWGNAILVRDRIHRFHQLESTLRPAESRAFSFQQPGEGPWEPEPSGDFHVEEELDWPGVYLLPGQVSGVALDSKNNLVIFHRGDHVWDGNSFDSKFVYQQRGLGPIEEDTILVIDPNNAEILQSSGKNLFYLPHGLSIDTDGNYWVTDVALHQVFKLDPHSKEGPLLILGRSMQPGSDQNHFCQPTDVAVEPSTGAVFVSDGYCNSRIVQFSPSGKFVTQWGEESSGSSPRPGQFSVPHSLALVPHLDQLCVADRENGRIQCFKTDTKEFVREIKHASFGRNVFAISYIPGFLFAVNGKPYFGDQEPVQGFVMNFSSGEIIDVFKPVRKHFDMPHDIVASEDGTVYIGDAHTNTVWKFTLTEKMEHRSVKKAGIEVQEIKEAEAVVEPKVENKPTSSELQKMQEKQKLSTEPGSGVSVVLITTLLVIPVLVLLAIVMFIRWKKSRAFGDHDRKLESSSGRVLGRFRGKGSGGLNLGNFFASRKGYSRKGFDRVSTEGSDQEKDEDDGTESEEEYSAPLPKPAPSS
- Protocol summary: Ratio of Vm(app) to Km(app) for rat recombinant peptidylglycine alpha-amidating monooxygenase
Where a SMILES comes first, the peptide text is derived from it. [ ]: non-standard residue; d: D form. The star is where a group is joined. Dansyl = CN(C)c1cccc2c(S(=O)(=O)*)cccc12; pGlu = O=C1CC[C@@H](C(=O)O)N1
Measurement kind: Ratio (×10⁴ /M/s)
Express your answer in ×10⁴ /M/s, writing the number without its unit.

Quick one: Ratio of `O=C(O)CNC(=O)Nc1ccccc1` ?
2.7

Let us now turn to CC(C)[C@H](NC(=O)[C@H](Cc1ccc(O)cc1)NS(=O)(=O)c1cccc2c(N(C)C)cccc12)C(=O)N[C@H](C)C(=O)O (Dansyl-Tyr-Val-[dA]-OH)
3

New cases:
Look at this molecule and give its reported Ratio. `O=C(O)CNC(=O)SCc1ccccc1`
1.2

Would you kindly repeat that for `O=C(O)CNC(=O)CSc1ccccc1` ?
2.5

Now this one: O=C(O)CNC(=O)[C@@H]1CCC(=O)N1 ([pGlu]-Gly-OH)
3

Next record, please: `O=C(O)CNC(=S)CCc1ccccc1`
4.2

---

Consider the following molecules and their measured Ratio readings.
- Measured target: Peptidylglycine alpha-amidating monooxygenase (Rattus norvegicus)
- Protocol summary: Ratio of Vm(app) to Km(app) for rat recombinant peptidylglycine alpha-amidating monooxygenase
Where a SMILES comes first, the peptide text is derived from it. The star is where a group is joined. Boc = CC(C)(C)OC(=O)*; Bz = O=C(c1ccccc1)*; ClAc = O=C(CCl)*
Write the number in ×10⁴ /M/s without appending the unit.

In the examples that follow, each entry is paired with its recorded Ratio.
API: value(readout= Ratio, system= Peptidylglycine alpha-amidating monooxygenase (Rattus norvegicus), query= `CC(C)CCC(=O)NCC(=O)O` )
2.3

O=C(O)CNC(=O)CNC(=O)CNC(=O)c1ccccc1 (Bz-Gly-Gly-Gly-OH) ?
2.9

Likewise for `O=C(O)CNC(=O)/C=C/c1ccccc1` ?
3.6

Continuing:
Kindly state the measured Ratio obtained for CC(C)(C)OC(=O)NCC(=O)NCC(=O)O (Boc-Gly-Gly-OH) with Peptidylglycine alpha-amidating monooxygenase (Rattus norvegicus).
2.5

Another molecule to look at: O=C(O)CNC(=O)CNC(=O)CCl (ClAc-Gly-Gly-OH)
2.1

---

- Measured target: Peptidylglycine alpha-amidating monooxygenase (Rattus norvegicus) (UniProt P14925)
- Protocol summary: Ratio of Vm(app) to Km(app) for rat recombinant peptidylglycine alpha-amidating monooxygenase relative to hippuric acid
Where a SMILES comes first, the peptide text is derived from it. [ ]: non-standard residue; d: D form. The star is where a group is joined. pGlu = O=C1CC[C@@H](C(=O)O)N1; Bz = O=C(c1ccccc1)*; ClAc = O=C(CCl)*
Overview of reported Activity across a group of compounds:
Keep the answer to the number alone.

Below are worked cases with known answers.
Need Activity, item `CC(C)(C)OC(=O)NCC(=O)O`
0.3

Could you do the same for `O=C(O)CNC(=O)Nc1ccccc1` , please?
4.4

Proceed to `Cc1ccccc1C(=O)NCC(=O)O`
0.3

Follow-up entry: `O=C(O)CNC(=O)CCCCCCCc1ccccc1`
12

Cool, now `O=C(O)CNC(=O)c1ccc(C(F)(F)F)cc1`
0.6

Then `CC(C)CCC(=O)NCC(=O)O` ?
3.7

---
Give the measured Activity of `O=C(O)CNC(=S)Cc1ccccc1` .
16

Likewise for O=C(O)CNC(=O)CNC(=O)CCl (ClAc-Gly-Gly-OH) ?
3.3

Then what about the compound `O=C(O)CNC(=O)CCCCc1ccccc1` ?
12

Follow-up entry: `O=C(O)CNC(=O)c1ccc(Cl)cc1`
1.1

What about `O=C(O)CNC(=O)SCc1ccccc1` ?
1.9

Same read-out for O=C(O)CNC(=O)CNC(=O)c1ccccc1 (Bz-Gly-Gly-OH) ?
26

Then this compound: `O=C(O)CNC(=O)c1ccc(O)cc1`
0.6

Repeat for the following compound: `O=C(O)CNC(=O)/C=C/c1ccccc1`
5.8

Field entry: O=C(O)CNC(=O)[C@@H]1CCC(=O)N1 ([pGlu]-Gly-OH)
4.8

Okay, and `COc1ccc(C(=O)NCC(=O)O)cc1` ?
1
